Would you mind telling me the reported Ratio IC50 of each entry?
- ASSAY_SYSTEM: Melanocortin receptor 4 (Homo sapiens)
- Sequence (P32245 whole entry): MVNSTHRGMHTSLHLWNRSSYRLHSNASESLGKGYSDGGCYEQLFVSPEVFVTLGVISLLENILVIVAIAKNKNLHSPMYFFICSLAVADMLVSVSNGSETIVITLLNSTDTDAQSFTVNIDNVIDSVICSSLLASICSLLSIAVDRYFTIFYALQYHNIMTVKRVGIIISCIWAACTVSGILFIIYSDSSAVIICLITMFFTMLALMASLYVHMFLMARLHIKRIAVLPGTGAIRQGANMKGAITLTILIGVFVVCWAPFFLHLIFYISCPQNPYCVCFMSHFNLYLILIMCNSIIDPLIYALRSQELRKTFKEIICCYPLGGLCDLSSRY
- EXPERIMENT_NOTES: Ratio of IC50 for MDE6-82-3c to IC50 for test compound for displacement of [125I]-NDP-MSH from human melanocortin receptor 4 expressed in HEK293 cell membranes incubated for 1 hr by automatic gamma counting method
Square brackets hold non-standard residues; d marks the D form. Peptide text beside a SMILES is read from it.

Completed entries (count: 3):
[[record]]
compound = "C[C@@H]1NC(=O)[C@H](CC(N)=O)NC(=O)[C@H](Cc2ccccc2)NC(=O)[C@H](Cc2ccccc2)NC(=O)[C@H](CS)NC(=O)[C@@H]2CCCN2C(=O)[C@H]2CCCN2C(=O)[C@H](Cc2ccccc2)NC1=O (cyclo(PCFFNAF[dP]))"
measured_metric = "Ratio IC50"
recorded_value = 300

[[record]]
compound = "C[C@@H]1NC(=O)[C@H](CC(N)=O)NC(=O)[C@H](Cc2ccccc2)NC(=O)[C@H](Cc2ccccc2)NC(=O)[C@H](Cc2c[nH]cn2)NC(=O)[C@@H]2CCCN2C(=O)[C@H]2CCCN2C(=O)[C@H](Cc2ccccc2)NC1=O"
measured_metric = "Ratio IC50"
recorded_value = 300

[[record]]
compound = "C[C@@H]1NC(=O)[C@H](CC(N)=O)NC(=O)[C@H](Cc2ccccc2)NC(=O)[C@H](Cc2ccc(O)cc2)NC(=O)[C@H](CCCNC(=N)N)NC(=O)[C@@H]2CCCN2C(=O)[C@H]2CCCN2C(=O)[C@H](Cc2ccccc2)NC1=O (cyclo(PRYFNAF[dP]))"
measured_metric = "Ratio IC50"
recorded_value = 2000


Consider now this further compound.
What value of measured Ratio IC50 is listed for CC(C)[C@@H]1NC(=O)[C@H](CC(N)=O)NC(=O)[C@H](Cc2ccccc2)NC(=O)[C@H](Cc2ccccc2)NC(=O)[C@H](CCCNC(=N)N)NC(=O)[C@@H]2CCCN2C(=O)[C@H]2CCCN2C(=O)[C@H](Cc2ccccc2)NC1=O (cyclo(PRFFNVF[dP])) ?
3

###

- ASSAY_SYSTEM: Melanocortin receptor 4 (Mus musculus) (UniProt P56450)
- Sequence (P56450 whole entry): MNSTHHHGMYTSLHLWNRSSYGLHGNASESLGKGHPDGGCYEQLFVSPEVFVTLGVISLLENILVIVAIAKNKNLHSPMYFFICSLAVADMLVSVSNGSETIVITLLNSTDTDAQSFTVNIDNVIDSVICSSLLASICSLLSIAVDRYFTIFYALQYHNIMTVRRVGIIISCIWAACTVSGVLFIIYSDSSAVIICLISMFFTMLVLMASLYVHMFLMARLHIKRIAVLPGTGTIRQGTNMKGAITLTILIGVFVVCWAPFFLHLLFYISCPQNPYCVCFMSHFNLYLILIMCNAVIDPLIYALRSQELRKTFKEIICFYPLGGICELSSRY
- EXPERIMENT_NOTES: Ratio of IC50 for MDE6-82-3c to IC50 for test compound for displacement of [125I]-NDP-MSH from mouse melanocortin receptor 4 expressed in HEK293 cell mebranes incubated for 1 hr by automatic gamma counting method
Square brackets hold non-standard residues; d marks the D form. Peptide text beside a SMILES is read from it.
What Ratio IC50 was measured for each of the following?
Answers are plain numbers.

Consider the reported Ratio IC50 for these molecules:
[[record]]
molecule = "C[C@@H]1NC(=O)[C@H](CC(N)=O)NC(=O)[C@H](Cc2ccccc2)NC(=O)[C@H](Cc2ccccc2)NC(=O)[C@H](CS)NC(=O)[C@@H]2CCCN2C(=O)[C@H]2CCCN2C(=O)[C@H](Cc2ccccc2)NC1=O (cyclo(PCFFNAF[dP]))"
recorded_value = 90

[[record]]
molecule = "C[C@@H]1NC(=O)[C@H](CC(N)=O)NC(=O)[C@H](Cc2ccccc2)NC(=O)[C@H](Cc2ccc(O)cc2)NC(=O)[C@H](CCCNC(=N)N)NC(=O)[C@@H]2CCCN2C(=O)[C@H]2CCCN2C(=O)[C@H](Cc2ccccc2)NC1=O (cyclo(PRYFNAF[dP]))"
recorded_value = 100

[[record]]
molecule = "C[C@@H]1NC(=O)[C@H](CC(N)=O)NC(=O)[C@H](Cc2ccccc2)NC(=O)[C@H](Cc2ccccc2)NC(=O)[C@H](Cc2c[nH]cn2)NC(=O)[C@@H]2CCCN2C(=O)[C@H]2CCCN2C(=O)[C@H](Cc2ccccc2)NC1=O"
recorded_value = 300


Turning now to a further record.
Entry CC(C)[C@@H]1NC(=O)[C@H](CC(N)=O)NC(=O)[C@H](Cc2ccccc2)NC(=O)[C@H](Cc2ccccc2)NC(=O)[C@H](CCCNC(=N)N)NC(=O)[C@@H]2CCCN2C(=O)[C@H]2CCCN2C(=O)[C@H](Cc2ccccc2)NC1=O (cyclo(PRFFNVF[dP])) , system Melanocortin receptor 4 (Mus musculus) (UniProt P56450): what Ratio IC50 was measured?
2
